- ASSAY_OVERVIEW: MTD determination in mice (Examples 27, 36, 44)
- Type: in vivo
- EXPERIMENTAL_CONTEXT: female, mouse, in vivo, 'around'; read-out: MTD (as stated in dosage instructions)
- Description: Test animals: 6-8 weeks old mice, all female; mice were grouped randomly, with six mice in each group, administered with drugs at different concentration gradients separately and monitored for 14 d. A mouse was euthanized at a loss of 20% of its initial weight and deemed to have died of poisoning.
MEASURED_ATTRIBUTE: MTD

Query block: Which MTD reading was recorded for the molecule CCc1c2c(nc3ccc(OC(=O)N4CCC(N5CCCCC5)CC4)cc13)-c1cc3c(c(=O)n1C2)COC(=O)[C@]3(O)CC [Irinotecan, reference compound] ?
Result block: ~70 mg/kg

###

- Tested on: SKBR3 (breast cancer tissue)
- ASSAY_OVERVIEW: cells
- Type: cell-based
- EXPERIMENTAL_CONTEXT: CCK8, 48 h; Table 6
Where a SMILES comes first, the peptide text is derived from it. The star is where a group is joined. Belotecan = CC[C@@]1(O)C(=O)OCc2c1cc1n(c2=O)Cc2c-1nc1ccccc1c2CCN(C(C)C)*; X2 = CCCCN(CCc1c2c(nc3ccccc13)-c1cc3c(c(=O)n1C2)COC(=O)[C@]3(O)CC)*; X4 = CCCN(CCc1c2c(nc3ccccc13)-c1cc3c(c(=O)n1C2)COC(=O)[C@]3(O)CC)*; X5 = CC[C@@]1(O)C(=O)OCc2c1cc1n(c2=O)Cc2c-1nc1ccccc1c2CCN(CC(C)C)*; Propanoyl(3-maleimido) = O=C1C=CC(=O)N1CCC(=O)*; PEG6 = NCCOCCOCCOCCOCCOCCOCCC(=O)O
Lab note: compare IC50 Breast cancer tissue (SKBR3) with 2 µg/mL, writing yes (1) if less and no (0) if equal or more.

# count of solved cases: 3
CC[C@@]1(O)C(=O)OCc2c1cc1n(c2=O)Cc2c-1nc1ccccc1c2CCNC1CC1 = yes (1)
CC[C@@]1(O)C(=O)OCc2c1cc1n(c2=O)Cc2c-1nc1ccccc1c2CCN(CC(C)C)C(=O)[C@H](CC(C)C)NC(=O)[C@H](CC(N)=O)NC(=O)[C@H](C)NC(=O)[C@H](C)NC(=O)CCOCCOCCOCCOCCOCCOCCNC(=O)CCN1C(=O)C=CC1=O [MI-6PEG-AANL-D5] ({Propanoyl(3-maleimido)-PEG6}-AANL-X5) = no (0)
CCNCCc1c2c(nc3ccccc13)-c1cc3c(c(=O)n1C2)COC(=O)[C@]3(O)CC [D2] = yes (1)

Query block: Could you please tell me whether IC50 Breast cancer tissue (SKBR3) recorded for CCCN(CCc1c2c(nc3ccccc13)-c1cc3c(c(=O)n1C2)COC(=O)[C@]3(O)CC)C(=O)[C@H](CC(C)C)NC(=O)[C@H](CC(N)=O)NC(=O)[C@H](C)NC(=O)[C@H](C)NC(=O)CCOCCOCCOCCOCCOCCOCCNC(=O)CCN1C(=O)C=CC1=O [MI-6PEG-AANL-D3] ({Propanoyl(3-maleimido)-PEG6}-AANL-X4) is less than 2 µg/mL?
Result block: no (0)

Query block: Could you please tell me whether IC50 Breast cancer tissue (SKBR3) recorded for CCCCN(CCc1c2c(nc3ccccc13)-c1cc3c(c(=O)n1C2)COC(=O)[C@]3(O)CC)C(=O)[C@H](CC(C)C)NC(=O)[C@H](CC(N)=O)NC(=O)[C@H](C)NC(=O)[C@H](C)NC(=O)CCOCCOCCOCCOCCOCCOCCNC(=O)CCN1C(=O)C=CC1=O [MI-6PEG-AANL-D4] ({Propanoyl(3-maleimido)-PEG6}-AANL-X2) is less than 2 µg/mL?
Result block: no (0)

Query block: Could you please tell me whether IC50 Breast cancer tissue (SKBR3) recorded for CC[C@@]1(O)C(=O)OCc2c1cc1n(c2=O)Cc2c-1nc1ccccc1c2CCN(C(=O)[C@H](CC(C)C)NC(=O)[C@H](Cc1ccccc1)NC(=O)CNC(=O)CNC(=O)CCOCCOCCOCCOCCOCCOCCNC(=O)CCN1C(=O)C=CC1=O)C(C)C [MI-6PEG-GGFL-Belotecan] ({Propanoyl(3-maleimido)-PEG6}-GGFL-Belotecan) is less than 2 µg/mL?
Result block: no (0)

###

- Test system: sarcoma SJSA-1 tumor model
- ASSAY_OVERVIEW: Efficacy in animal model of sarcoma SJSA-1, 30 mg/kg once a week for two weeks (Example 40)
- Assay type: in vivo, BALB/c mice
- EXPERIMENTAL_CONTEXT: 30 mg/kg once a week for two weeks; Day 7
Where a SMILES comes first, the peptide text is derived from it. The star is where a group is joined. X4 = CCCN(CCc1c2c(nc3ccccc13)-c1cc3c(c(=O)n1C2)COC(=O)[C@]3(O)CC)*; Propanoyl(3-maleimido) = O=C1C=CC(=O)N1CCC(=O)*; PEG6 = NCCOCCOCCOCCOCCOCCOCCC(=O)O
Let's look at some compounds and their measured SJSA-1 (sarcoma tissue) mean tumor volume (mm^3) Day 7.
Give the quantity in mm^3, number only.

CCCN(CCc1c2c(nc3ccccc13)-c1cc3c(c(=O)n1C2)COC(=O)[C@]3(O)CC)C(=O)CNC(=O)[C@H](CC(N)=O)NC(=O)[C@H](C)NC(=O)[C@H](C)NC(=O)CCOCCOCCOCCOCCOCCOCCNC(=O)CCN1C(=O)C=CC1=O [MI-6PEG-AANG-D3] ({Propanoyl(3-maleimido)-PEG6}-AANG-X4) = 610.04

Query block: Which SJSA-1 (sarcoma tissue) mean tumor volume (mm^3) Day 7 reading was recorded for the compound `CC[C@@]1(O)C(=O)OCC2=C1C=C1c3nc4ccccc4c(CCN(C(=O)OCc4ccc(NC(=O)[C@H](CC(N)=O)NC(=O)[C@H](C)NC(=O)[C@H](C)NC(=O)CCOCCOCCOCCOCCOCCOCCNC(=O)CCN5C(=O)C=CC5=O)cc4)C(C)C)c3CN1C2` ?
Result block: 554.02

###

- Test system: colo320 colorectal cancer tumor model
- EXPERIMENTAL_CONTEXT: 45 mg/kg once a week for four weeks; Table 8
- Procedure: Test objective: To investigate the antitumor efficacy of the above compounds in an animal tumor model of colo320 colorectal cancer. Test drug: Polypeptide conjugate, Irinotecan, Belotecan and normal saline control group. Test animals: 6-8 weeks old BALB/c mice, all female. Passaging was performed every three days, and cells within 15 generations were used. 7.5×10^6 corresponding cells were injected into right chests of nude mice subcutaneously. […]
Where a SMILES comes first, the peptide text is derived from it. The star is where a group is joined. X8 = CC[C@@]1(O)C(=O)OCc2c1cc1n(c2=O)Cc2c-1nc1ccccc1c2CCN(C1CCCC1)*; X5 = CC[C@@]1(O)C(=O)OCc2c1cc1n(c2=O)Cc2c-1nc1ccccc1c2CCN(CC(C)C)*; X7 = CC[C@@]1(O)C(=O)OCc2c1cc1n(c2=O)Cc2c-1nc1ccccc1c2CCN(C)*; Propanoyl(3-maleimido) = O=C1C=CC(=O)N1CCC(=O)*; PEG6 = NCCOCCOCCOCCOCCOCCOCCC(=O)O
Let's look at some molecules and their measured Mouse weight (%).

# annotated cases, reported Mouse weight (%) shown
CC[C@@]1(O)C(=O)OCc2c1cc1n(c2=O)Cc2c-1nc1ccccc1c2CCN(CC(C)C)C(=O)[C@H](CC(C)C)NC(=O)[C@H](CC(N)=O)NC(=O)[C@H](C)NC(=O)[C@H](C)NC(=O)CCOCCOCCOCCOCCOCCOCCNC(=O)CCN1C(=O)C=CC1=O [MI-6PEG-AANL-D5] ({Propanoyl(3-maleimido)-PEG6}-AANL-X5) = +19%
CC[C@@]1(O)C(=O)OCc2c1cc1n(c2=O)Cc2c-1nc1ccccc1c2CCN(C)C(=O)[C@H](CC(C)C)NC(=O)[C@H](Cc1ccccc1)NC(=O)CNC(=O)CNC(=O)CCOCCOCCOCCOCCOCCOCCNC(=O)CCN1C(=O)C=CC1=O [MI-6PEG-GGFL-D1] ({Propanoyl(3-maleimido)-PEG6}-GGFL-X7) = +19%

Query block: Which Mouse weight (%) reading was recorded for the molecule CC[C@@]1(O)C(=O)OCc2c1cc1n(c2=O)Cc2c-1nc1ccccc1c2CCN(C(=O)[C@H](CC(C)C)NC(=O)[C@H](CC(N)=O)NC(=O)[C@H](C)NC(=O)[C@H](C)NC(=O)CCOCCOCCOCCOCCOCCOCCNC(=O)CCN1C(=O)C=CC1=O)C1CCCC1 [MI-6PEG-AANL-D8] ({Propanoyl(3-maleimido)-PEG6}-AANL-X8) ?
Result block: +15%

###

- Tested on: sarcoma SJSA-1 tumor model
- ASSAY_OVERVIEW: Efficacy in animal model of sarcoma SJSA-1, 30 mg/kg once a week for two weeks (Example 40)
- Format: in vivo, BALB/c mice
- EXPERIMENTAL_CONTEXT: 30 mg/kg once a week for two weeks; Day 10
Where a SMILES comes first, the peptide text is derived from it. The star is where a group is joined. X4 = CCCN(CCc1c2c(nc3ccccc13)-c1cc3c(c(=O)n1C2)COC(=O)[C@]3(O)CC)*; Propanoyl(3-maleimido) = O=C1C=CC(=O)N1CCC(=O)*; PEG6 = NCCOCCOCCOCCOCCOCCOCCC(=O)O
MEASURED_ATTRIBUTE: SJSA-1 (sarcoma tissue) mean tumor volume (mm^3) Day 10

CC[C@@]1(O)C(=O)OCC2=C1C=C1c3nc4ccccc4c(CCN(C(=O)OCc4ccc(NC(=O)[C@H](CC(N)=O)NC(=O)[C@H](C)NC(=O)[C@H](C)NC(=O)CCOCCOCCOCCOCCOCCOCCNC(=O)CCN5C(=O)C=CC5=O)cc4)C(C)C)c3CN1C2 = 706.21 mm^3

Shifting focus to the molecule that follows.
Query block: Which SJSA-1 (sarcoma tissue) mean tumor volume (mm^3) Day 10 reading was recorded for the molecule CCCN(CCc1c2c(nc3ccccc13)-c1cc3c(c(=O)n1C2)COC(=O)[C@]3(O)CC)C(=O)[C@H](CC(C)C)NC(=O)[C@H](CC(N)=O)NC(=O)[C@H](C)NC(=O)[C@H](C)NC(=O)CCOCCOCCOCCOCCOCCOCCNC(=O)CCN1C(=O)C=CC1=O [MI-6PEG-AANL-D3] ({Propanoyl(3-maleimido)-PEG6}-AANL-X4) ?
Result block: 1111.34 mm^3
